Target: RORγt ligand-binding domain (RORγt-LBD) (Homo sapiens, UniProt P51449)
Construct: 20 nM recombinantly expressed RORγ-LBD fused to GST
Sequence (P51449 269-508 limits assumed): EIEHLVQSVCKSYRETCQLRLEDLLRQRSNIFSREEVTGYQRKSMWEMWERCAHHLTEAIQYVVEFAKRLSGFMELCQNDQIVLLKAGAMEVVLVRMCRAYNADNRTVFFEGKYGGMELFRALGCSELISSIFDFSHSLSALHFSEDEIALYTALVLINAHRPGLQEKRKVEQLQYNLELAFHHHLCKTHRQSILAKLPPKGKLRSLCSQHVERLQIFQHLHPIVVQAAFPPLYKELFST
Assay: Time-resolved FRET (TR-FRET) RORγt coactivator assay
Settings: GST-RORγ-LBD, biotinylated RIP140 peptide, coactivator displacement
Listed next: entries and their corresponding IC50.

// solved cases for IC50 follow
MOLECULE: O=C(O)CCCC(=O)c1c[nH]c2ccc(CC(=O)NC(c3ccccc3)c3ccccc3N3CCCCC3)cc12 (centres unmarked)
DATA_VALUE: < 1000 nM
--
MOLECULE: O=C(O)CCc1c[nH]c2ccc(CC(=O)NC3(c4ccccc4N4CCCCC4)CCCCC3)cc12
DATA_VALUE: < 1000 nM

Quick check: IC50 on RORγt ligand-binding domain (RORγt-LBD) (Homo sapiens, UniProt P51449), item Cc1cc(Cl)ccc1C(NC(=O)Cc1ccc2[nH]cc(CCC(=O)O)c2c1)c1ccccc1 (centres unmarked) ?
< 1000 nM

IC50 of O=C(Cc1ccc2[nH]cc(C(=O)O)c2c1)NC(c1ccccc1)c1ccccc1N1CCCCC1 (centres unmarked) on RORγt ligand-binding domain (RORγt-LBD) (Homo sapiens, UniProt P51449)?
1000 to 10000 nM

# query: IC50 | item CN(C)c1ccccc1C(NC(=O)Cc1ccc2[nH]cc(CCC(=O)OC(C)(C)C)c2c1)c1ccccc1 (centres unmarked) | system: RORγt ligand-binding domain (RORγt-LBD) (Homo sapiens, UniProt P51449)
1000 to 10000 nM

---

Biological target: RORγt ligand-binding domain (RORγt-LBD) (Homo sapiens)
Construct: 20 nM recombinantly expressed RORγ-LBD fused to GST
Assay: Time-resolved FRET (TR-FRET) RORγt coactivator assay
Conditions: GST-RORγ-LBD, biotinylated RIP140 peptide, coactivator displacement
pIC50: −log10 of the molar value.
Parameter pIC50: see the listing below.

// known answers, use as guide
COMPOUND: Cc1cccc(CC(NC(=O)Cc2ccc3[nH]cc(CCC(=O)O)c3c2)c2ccccc2N2CCCCC2)c1 (stereo not shown)
SYSTEM_NAME: RORγt ligand-binding domain (RORγt-LBD) (Homo sapiens)
pIC50: 5.00 to 6.00

COMPOUND: N#Cc1ccc(C(NC(=O)Cc2ccc3[nH]cc(CCC(=O)O)c3c2)c2ccccc2)c(N2CCCC2)c1 (stereo not shown)
SYSTEM_NAME: RORγt ligand-binding domain (RORγt-LBD) (Homo sapiens)
pIC50: > 6.00

COMPOUND: Cc1ccc(C(NC(=O)Cc2ccc3[nH]cc(CCC(=O)O)c3c2)c2ccccc2)c2[nH]ccc12 (stereo not shown)
SYSTEM_NAME: RORγt ligand-binding domain (RORγt-LBD) (Homo sapiens)
pIC50: 5.00 to 6.00

Tell me reported pIC50 for O=C(O)CCC(=O)c1c[nH]c2ccc(CC(=O)NC(c3ccccc3)c3ccccc3N3CCCCC3)cc12 (stereo not shown) , tested with RORγt ligand-binding domain (RORγt-LBD) (Homo sapiens).
> 6.00

Notebook entry, RORγt ligand-binding domain (RORγt-LBD) (Homo sapiens) assay: pIC50 of O=C(O)CCc1c[nH]c2ccc(CC(=O)NC(c3ccccc3)c3cc(Br)ccc3N3CCCC3)cc12 (stereo not shown) = ?
> 6.00

What value of pIC50 on RORγt ligand-binding domain (RORγt-LBD) (Homo sapiens) does CC(C)(C)OC(=O)CCc1c[nH]c2ccc(CC(=O)NC(c3ccccc3)c3ccccc3-n3cccc3)cc12 (stereo not shown) have?
5.00 to 6.00

Request: pIC50, test system RORγt ligand-binding domain (RORγt-LBD) (Homo sapiens), entry Cc1ccc(C(NC(=O)Cc2ccc3[nH]cc(CCC(=O)O)c3c2)c2ccccc2OC(C)C)o1 (stereo not shown)
> 6.00

---

Target: CYP1A2 (Homo sapiens, UniProt P05177)
Sequence (P05177 1-516): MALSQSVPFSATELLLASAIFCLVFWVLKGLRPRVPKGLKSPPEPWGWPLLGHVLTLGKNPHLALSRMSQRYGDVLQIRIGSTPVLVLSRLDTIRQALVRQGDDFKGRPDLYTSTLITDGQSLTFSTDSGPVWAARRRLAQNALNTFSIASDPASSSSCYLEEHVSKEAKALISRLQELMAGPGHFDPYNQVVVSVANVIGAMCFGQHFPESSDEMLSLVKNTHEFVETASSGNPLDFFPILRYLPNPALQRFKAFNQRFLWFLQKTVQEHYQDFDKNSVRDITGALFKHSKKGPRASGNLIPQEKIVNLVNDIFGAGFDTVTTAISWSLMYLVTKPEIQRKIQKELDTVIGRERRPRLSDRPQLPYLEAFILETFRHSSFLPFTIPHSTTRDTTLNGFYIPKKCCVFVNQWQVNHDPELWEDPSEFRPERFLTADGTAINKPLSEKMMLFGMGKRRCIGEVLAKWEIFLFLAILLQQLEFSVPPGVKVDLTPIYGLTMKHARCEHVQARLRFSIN
Assay: CYP inhibition CYP1A2 (CEREP)
Assay type: in vitro ADME
Conditions: human, recombinant CYP1A2, probe 3-cyano-7-ethoxycoumarin, single concentration (typically 10 μM), read-out: CYP 1A2 (% inhibition of Control)
Entries and their inhibition at 10 µM
Report as a plain number; the unit % is understood.

Kindly state the measured inhibition at 10 µM obtained for CC(C)CC(NC(=O)Cc1ccc2[nH]cc(CCC(=O)O)c2c1)c1ccccc1N1CCCCC1 (stereo not drawn) with CYP1A2 (Homo sapiens, UniProt P05177).
-8.2

Checklist item: inhibition at 10 µM tested on CYP1A2 (Homo sapiens, UniProt P05177), entry Cc1ccc(C(NC(=O)Cc2ccc3[nH]cc(CCC(=O)O)c3c2)c2ccccc2)c(N(C)C)c1 (stereo not drawn) , value?
-1.9

---

# pIC50 listing for each entry below
Molecular target: RORγt ligand-binding domain (RORγt-LBD) (Homo sapiens)
Construct: 20 nM recombinantly expressed RORγ-LBD fused to GST
Experiment: Time-resolved FRET (TR-FRET) RORγt coactivator assay
Details: GST-RORγ-LBD, biotinylated RIP140 peptide, coactivator displacement
pIC50: −log10 of the molar value.

Fill in the blank: the reported pIC50 of Cc1ccc(C(NC(=O)Cc2ccc3[nH]cc(CCC(=O)OC(C)(C)C)c3c2)c2ccccc2)c(OC(C)C)c1 (stereo not drawn) is ____.
> 6.00

---

Target: human RORγt (Homo sapiens)
Sequence (P51449 1-497 isoform P51449-2): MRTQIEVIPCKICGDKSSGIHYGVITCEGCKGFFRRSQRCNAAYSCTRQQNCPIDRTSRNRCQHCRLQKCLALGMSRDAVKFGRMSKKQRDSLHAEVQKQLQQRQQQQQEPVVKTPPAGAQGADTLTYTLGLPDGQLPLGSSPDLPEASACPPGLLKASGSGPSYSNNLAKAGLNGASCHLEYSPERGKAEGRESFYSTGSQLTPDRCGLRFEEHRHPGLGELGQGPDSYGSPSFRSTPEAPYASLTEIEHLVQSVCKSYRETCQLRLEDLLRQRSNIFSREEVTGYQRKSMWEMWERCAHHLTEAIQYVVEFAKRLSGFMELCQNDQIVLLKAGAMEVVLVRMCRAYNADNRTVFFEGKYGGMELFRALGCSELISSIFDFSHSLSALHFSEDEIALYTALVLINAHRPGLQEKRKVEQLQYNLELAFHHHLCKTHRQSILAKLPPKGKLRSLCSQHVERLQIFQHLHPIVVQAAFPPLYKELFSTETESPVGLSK
Assay: IL-17 secretion from EL4 murine lymphoma overexpressing human RORγt
Format: cell-based
Design: expressed in transfected cells; host or cells: EL-4 murine lymphoma
Conditions: IL-17 secretion inhibition, PMA and ionomycin stimulation, 24 h
pIC50: −log10 of the molar value.
PARAMETER_MEASURED: pIC50

Check out these entries, answers already filled in.
MOLECULE: Cc1ccc(C(NC(=O)Cc2ccc3[nH]cc(CCC(=O)O)c3c2)c2ccccc2N2CCCCC2)cc1 (stereo not shown) [compound 188]
SYSTEM_NAME: human RORγt (Homo sapiens)
pIC50: 4.52 to 5.00

MOLECULE: Cc1ccc(C(NC(=O)Cc2ccc3[nH]cc(CCC(=O)O)c3c2)c2ccccc2)c(N2CC=CC2)c1 (stereo not shown) [compound 200]
SYSTEM_NAME: human RORγt (Homo sapiens)
pIC50: 5.00 to 6.00

MOLECULE: O=C(O)CCc1c[nH]c2ccc(CC(=O)NC(CC3CCCCC3)c3ccccc3N3CCCCC3)cc12 (stereo not shown) [compound 162]
SYSTEM_NAME: human RORγt (Homo sapiens)
pIC50: 5.00 to 6.00

MOLECULE: CCOC(=O)CCCCc1c[nH]c2ccc(CC(=O)NC(c3ccccc3)c3ccccc3N3CCCCC3)cc12 (stereo not shown) [Cpd. 216]
SYSTEM_NAME: human RORγt (Homo sapiens)
pIC50: 5.00 to 6.00

MOLECULE: COc1cc(C)ccc1C(NC(=O)Cc1ccc2[nH]cc(CCC(=O)OC(C)(C)C)c2c1)c1ccccc1 (stereo not shown) [Cpd. 98]
SYSTEM_NAME: human RORγt (Homo sapiens)
pIC50: 5.00 to 6.00

We next turn to a different molecule, shown below.
Provide value of pIC50 for this record tested with human RORγt (Homo sapiens): Cc1ccc(C(NC(=O)Cc2ccc3[nH]cc(CCC(=O)O)c3c2)c2ccccc2)c(N(C)C)c1 (stereo not shown) [Cpd. 192]
> 6.00

---

The compounds listed here are annotated with their IC50.
Target: RORγt ligand-binding domain (RORγt-LBD) (Homo sapiens)
Construct: 20 nM recombinantly expressed RORγ-LBD fused to GST
Experiment: Time-resolved FRET (TR-FRET) RORγt coactivator assay
Settings: GST-RORγ-LBD, biotinylated RIP140 peptide, coactivator displacement
Source text: Time-resolved FRET (TR-FRET) RORγt coactivator assay was used to identify RORγ modulator compounds with ligand-dependent coactivator displacement. […] For reduction of background from compound fluorescence, TR-FRET method makes use of generic fluorophore labels and time resolved detection. […]

COMPOUND: CC(C)(C)OC(=O)CCc1c[nH]c2ccc(CC(=O)NC(c3ccccc3)c3ccccc3N3CCCC(O)C3)cc12 (stereo not shown)
IC50: 1000 to 10000 nM

# query: IC50 | item Cc1ccc(C(NC(=O)Cc2ccc3[nH]cc(CCC(=O)OC(C)(C)C)c3c2)c2ccccc2)c(N2CCOCC2)c1 (stereo not shown) | system: RORγt ligand-binding domain (RORγt-LBD) (Homo sapiens)
< 1000 nM

Request: IC50, test system RORγt ligand-binding domain (RORγt-LBD) (Homo sapiens), entry Cc1cccc(C(NC(=O)Cc2ccc3[nH]cc(CCC(=O)OC(C)(C)C)c3c2)c2ccccc2N2CCCCC2)c1 (stereo not shown)
< 1000 nM

Item: CCOC(=O)CCCCc1c[nH]c2ccc(CC(=O)NC(c3ccccc3)c3ccccc3N3CCCCC3)cc12 (stereo not shown) Test system: RORγt ligand-binding domain (RORγt-LBD) (Homo sapiens) Read-out: IC50 Value: ?
< 1000 nM
